In this section, each of the molecules is paired with its reported pIC50.
- System Under Test: T-type calcium channel (α1G) (Homo sapiens)
- Sequence (O43497 whole entry): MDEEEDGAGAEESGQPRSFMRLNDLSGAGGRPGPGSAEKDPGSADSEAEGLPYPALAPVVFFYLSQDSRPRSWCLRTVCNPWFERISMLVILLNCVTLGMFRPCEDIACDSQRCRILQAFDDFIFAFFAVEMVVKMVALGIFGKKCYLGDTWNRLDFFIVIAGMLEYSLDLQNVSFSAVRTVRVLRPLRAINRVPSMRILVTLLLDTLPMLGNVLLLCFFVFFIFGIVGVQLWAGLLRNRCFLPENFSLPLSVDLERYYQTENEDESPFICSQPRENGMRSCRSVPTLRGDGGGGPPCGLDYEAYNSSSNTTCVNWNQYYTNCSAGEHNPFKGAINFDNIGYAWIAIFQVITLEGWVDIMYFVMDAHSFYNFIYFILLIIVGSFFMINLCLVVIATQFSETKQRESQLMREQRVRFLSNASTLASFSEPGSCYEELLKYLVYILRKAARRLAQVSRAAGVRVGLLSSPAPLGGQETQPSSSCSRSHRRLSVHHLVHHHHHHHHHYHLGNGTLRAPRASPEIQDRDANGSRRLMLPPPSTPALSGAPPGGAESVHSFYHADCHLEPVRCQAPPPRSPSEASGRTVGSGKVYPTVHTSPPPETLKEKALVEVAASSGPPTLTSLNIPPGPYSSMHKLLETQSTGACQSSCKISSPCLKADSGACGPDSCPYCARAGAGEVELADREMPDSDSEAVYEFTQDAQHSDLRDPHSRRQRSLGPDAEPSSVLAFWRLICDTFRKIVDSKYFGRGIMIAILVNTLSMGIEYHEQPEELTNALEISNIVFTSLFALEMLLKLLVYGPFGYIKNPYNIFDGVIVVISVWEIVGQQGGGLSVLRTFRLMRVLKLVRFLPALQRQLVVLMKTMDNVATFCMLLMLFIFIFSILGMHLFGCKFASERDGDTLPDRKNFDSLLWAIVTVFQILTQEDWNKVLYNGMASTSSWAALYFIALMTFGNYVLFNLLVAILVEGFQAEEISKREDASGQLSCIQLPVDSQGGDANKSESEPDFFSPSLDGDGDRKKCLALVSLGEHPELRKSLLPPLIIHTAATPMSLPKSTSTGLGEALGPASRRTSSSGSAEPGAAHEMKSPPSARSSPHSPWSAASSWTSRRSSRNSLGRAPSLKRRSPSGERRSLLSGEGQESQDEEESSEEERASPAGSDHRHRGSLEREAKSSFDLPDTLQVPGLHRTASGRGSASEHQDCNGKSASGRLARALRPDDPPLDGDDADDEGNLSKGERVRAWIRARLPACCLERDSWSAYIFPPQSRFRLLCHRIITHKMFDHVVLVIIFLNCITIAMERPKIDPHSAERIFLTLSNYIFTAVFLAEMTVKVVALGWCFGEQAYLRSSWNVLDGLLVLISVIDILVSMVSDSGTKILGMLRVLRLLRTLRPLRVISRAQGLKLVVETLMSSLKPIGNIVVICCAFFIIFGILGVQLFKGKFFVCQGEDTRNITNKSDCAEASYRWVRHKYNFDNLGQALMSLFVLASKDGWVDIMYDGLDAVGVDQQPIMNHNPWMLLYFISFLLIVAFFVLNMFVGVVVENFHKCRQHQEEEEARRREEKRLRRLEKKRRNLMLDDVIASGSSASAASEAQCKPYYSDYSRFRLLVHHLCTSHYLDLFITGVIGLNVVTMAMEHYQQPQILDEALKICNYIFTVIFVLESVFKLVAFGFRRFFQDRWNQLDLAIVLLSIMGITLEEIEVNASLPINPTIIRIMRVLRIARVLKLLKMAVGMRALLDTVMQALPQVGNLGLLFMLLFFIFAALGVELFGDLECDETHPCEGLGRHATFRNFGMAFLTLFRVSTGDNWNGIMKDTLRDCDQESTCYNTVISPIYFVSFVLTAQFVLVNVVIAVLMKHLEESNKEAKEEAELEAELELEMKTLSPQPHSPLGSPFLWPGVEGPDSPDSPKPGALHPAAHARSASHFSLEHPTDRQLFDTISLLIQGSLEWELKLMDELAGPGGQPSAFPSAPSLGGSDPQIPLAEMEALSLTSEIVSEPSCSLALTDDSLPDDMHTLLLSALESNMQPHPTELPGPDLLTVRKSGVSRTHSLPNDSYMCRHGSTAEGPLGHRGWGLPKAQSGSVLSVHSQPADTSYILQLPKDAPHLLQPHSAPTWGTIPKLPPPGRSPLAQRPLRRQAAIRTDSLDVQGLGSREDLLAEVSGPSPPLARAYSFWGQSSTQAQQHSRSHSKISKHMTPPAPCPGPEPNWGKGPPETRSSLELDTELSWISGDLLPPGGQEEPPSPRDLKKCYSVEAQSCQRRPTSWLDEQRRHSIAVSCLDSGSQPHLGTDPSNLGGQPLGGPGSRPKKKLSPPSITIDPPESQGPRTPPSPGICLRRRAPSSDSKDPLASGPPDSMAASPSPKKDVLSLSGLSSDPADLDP
- Method Notes: T-type calcium channel blocking, electrophysiological whole-cell patch-clamp in HEK293 cells expressing α1G
- Measurement Parameters: dose-response curve, three independent experiments, read-out: Channel blocking effect (IC50) T-type (α1G)
pIC50: −log10 of the molar value.
Readout Type: pIC50

INSERT INTO measurements (molecule, system_under_test, readout_type, endpoint_value) VALUES
  ('CN(C)CCCCCN(C)C1=Nc2ccccc2C(CC(=O)NCc2ccccc2)N1c1ccc(-c2ccccc2)cc1 (stereo not drawn) [KYS05090]', 'T-type calcium channel (α1G) (Homo sapiens)', 'pIC50', 7.39),
  ('COC(=O)CC1c2ccccc2N=C(N(C)CCCCCN(C)C)N1c1ccc(-c2ccccc2)cc1 (stereo not drawn) [KYS05089]', 'T-type calcium channel (α1G) (Homo sapiens)', 'pIC50', 6.64),
  ('CN(CCCCCN1CCCC1)C1=Nc2ccccc2C(CC(=O)NCc2ccccc2)N1c1ccc(-c2ccccc2)cc1 (stereo not drawn) [KYS05080]', 'T-type calcium channel (α1G) (Homo sapiens)', 'pIC50', 6.59);
